- tgt: High affinity cGMP-specific 3',5'-cyclic phosphodiesterase 9A (Homo sapiens)
- procedure_details: Inhibition of N-terminal GST-tagged human recombinant PDE9A assessed as substrate hydrolysis using [3H]cGMP as substrate at 1 uM after 30 mins by two-step radiometric assay
parameter: inhibition (%)

A: Cn1c2ccccc2c2cc(CCOc3nccnc3-c3ccncc3)cnc21
B: Cn1c2ccccc2c2cc(CCOc3ncccc3-c3ccncc3)cnc21
C: Cn1c2ccccc2c2cc(CCOc3ncccc3-c3cncnc3)cnc21
Please rank everything listed above by inhibition, with the minimum value first. Provide your answer as the labels ordered per the instruction.
B, A, C

a: FC(F)n1c2ccccc2c2cc(CCOc3ncccc3-c3cncnc3)cnc21
b: Cn1c2ccccc2c2cc(CCOc3nccnc3-c3ccc(F)cc3)cnc21
Determine, for a and b , which has the greater value of inhibition. Reply briefly: the label of your chosen item.
a
(a: 5.3%, b: 1.6%)

----------
- procedure_details: Cmax in Sprague-Dawley rat at 5 mg/kg, po
- Type: ADME, organism-based
- Design: dose 5 mg/kg, route oral
- condition: in vivo
parameter: Cmax (ng/mL)
Form entry: value (ng/mL) — number only.

For the compound Cn1c2ccccc2c2cc(CCOc3nccnc3-c3ccc(F)cc3)cnc21 , what Cmax is on record?
103

----------
- tgt: High affinity 3',5'-cyclic-AMP phosphodiesterase 7A (Homo sapiens)
- procedure_details: Inhibition of N-terminal GST-tagged human recombinant PDE7A assessed as substrate hydrolysis using [3H]cAMP as substrate at 1 uM after 30 mins by two-step radiometric assay
parameter: inhibition (%)

Cn1c2ccccc2c2cc(CCOc3ncccc3-c3ccncc3)cnc21 : 40.5

1: Cn1c2ccccc2c2cc(CCOc3nccnc3-c3ccncc3)cnc21
2: Cn1c2ccccc2c2cc(CCOc3nccnc3-c3ccc(F)cc3)cnc21
Determine, for 1 and 2 , which has the greater value of inhibition. Reply briefly: the label of your chosen item.
1

----------
- tgt: cGMP-dependent 3',5'-cyclic phosphodiesterase (Homo sapiens)
- procedure_details: Inhibition of N-terminal GST-tagged human recombinant PDE2A assessed as substrate hydrolysis using cAMP as substrate at 1 uM after 30 mins by homogenous time-resolved fluorescence method
parameter: inhibition (%)

FC(F)n1c2ccccc2c2cc(CCOc3ncccc3-c3cncnc3)cnc21 : 40.6
Cn1c2ccccc2c2cc(CCOc3ncccc3-c3ccncc3)cnc21 : 41.4

I: Cn1c2ccccc2c2cc(CCOc3nccnc3-c3ccc(F)cc3)cnc21
II: Cn1c2ccccc2c2cc(CCOc3ncccc3-c3cncnc3)cnc21
III: Cn1c2ccccc2c2cc(CCOc3nccnc3-c3ccncc3)cnc21
Please list these compounds in decreasing order of inhibition. Provide your answer as the labels ordered per the instruction.
II, III, I
(II: 67.2%, III: 34.5%, I: 11.9%)

----------
- tgt: High affinity cAMP-specific and IBMX-insensitive 3',5'-cyclic phosphodiesterase 8A (Homo sapiens)
- procedure_details: Inhibition of N-terminal GST-tagged human recombinant PDE8A assessed as substrate hydrolysis using [3H]cAMP as substrate at 1 uM after 30 mins by two-step radiometric assay
parameter: inhibition (%)

Examples with their reported inhibition follow.
FC(F)n1c2ccccc2c2cc(CCOc3ncccc3-c3cncnc3)cnc21 : 2.1
Cn1c2ccccc2c2cc(CCOc3ncccc3-c3cncnc3)cnc21 : 0
Cn1c2ccccc2c2cc(CCOc3nccnc3-c3ccc(F)cc3)cnc21 : 0

A: Cn1c2ccccc2c2cc(CCOc3nccnc3-c3ccncc3)cnc21
B: Cn1c2ccccc2c2cc(CCOc3ncccc3-c3ccncc3)cnc21
I would appreciate it if you could say which entry, A or B , has the lower inhibition value. Reply briefly: the label of your chosen item.
A

----------
- tgt: cAMP and cAMP-inhibited cGMP 3',5'-cyclic phosphodiesterase 10A (Homo sapiens)
- Sequence (Q9Y233 whole entry): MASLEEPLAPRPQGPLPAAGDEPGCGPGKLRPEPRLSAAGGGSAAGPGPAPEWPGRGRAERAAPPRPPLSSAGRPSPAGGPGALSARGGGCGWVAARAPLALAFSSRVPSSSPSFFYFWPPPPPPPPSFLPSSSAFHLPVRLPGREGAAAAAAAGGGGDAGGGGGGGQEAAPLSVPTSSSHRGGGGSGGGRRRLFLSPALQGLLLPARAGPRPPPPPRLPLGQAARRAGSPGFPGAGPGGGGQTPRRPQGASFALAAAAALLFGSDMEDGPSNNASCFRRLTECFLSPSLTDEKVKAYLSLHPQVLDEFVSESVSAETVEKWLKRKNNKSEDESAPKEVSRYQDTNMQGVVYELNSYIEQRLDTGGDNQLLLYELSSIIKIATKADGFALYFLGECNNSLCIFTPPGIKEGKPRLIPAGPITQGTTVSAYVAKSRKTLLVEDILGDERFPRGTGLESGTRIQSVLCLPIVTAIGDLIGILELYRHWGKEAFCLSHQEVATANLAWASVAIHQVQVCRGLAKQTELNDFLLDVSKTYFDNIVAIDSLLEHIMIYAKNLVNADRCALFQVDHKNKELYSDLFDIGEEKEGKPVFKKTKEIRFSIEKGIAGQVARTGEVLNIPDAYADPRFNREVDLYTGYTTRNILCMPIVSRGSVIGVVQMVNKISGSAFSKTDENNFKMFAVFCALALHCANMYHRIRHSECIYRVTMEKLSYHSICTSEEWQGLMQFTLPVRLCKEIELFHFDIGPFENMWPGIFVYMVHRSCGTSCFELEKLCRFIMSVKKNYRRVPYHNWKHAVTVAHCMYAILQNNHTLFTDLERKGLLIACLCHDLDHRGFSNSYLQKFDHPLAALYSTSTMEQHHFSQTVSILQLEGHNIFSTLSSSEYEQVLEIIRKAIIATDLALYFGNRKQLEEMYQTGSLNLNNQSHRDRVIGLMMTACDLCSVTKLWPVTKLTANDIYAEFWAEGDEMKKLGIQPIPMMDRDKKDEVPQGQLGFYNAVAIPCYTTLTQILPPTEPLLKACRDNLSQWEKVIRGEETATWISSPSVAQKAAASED
- procedure_details: Inhibition of N-terminal GST-tagged human recombinant PDE10A assessed as substrate hydrolysis using [3H]cAMP as substrate after 30 mins by two-step radiometric assay
parameter: IC50 (nM)

Cn1c2ccccc2c2cc(CCOc3ncccc3-c3ccc(F)cc3)cnc21 : 68.5

I: Cn1cc(CCOc2nccnc2-c2cncnc2)c2nc3ccccc3cc21
II: Cn1c2ccccc2c2cc(CCOc3nccnc3-c3cncnc3)cnc21
Determine, for I and II , which has the greater value of IC50. Reply briefly: the label of your chosen item.
I

----------
- procedure_details: Metabolic stability in rat liver microsomes assessed as compound remaining at 1 uM after 60 mins
- Format: ADME
- condition: read-out: Stability
parameter: remaining at 1 h, 1 µM (%)

Examples with their reported remaining at 1 h, 1 µM follow.
Cn1c2ccccc2c2cc(CCOc3ncccc3-c3ccncc3)cnc21 : 0.77
Cn1c2ccccc2c2cc(CCOc3nccnc3-c3ccc(F)cc3)cnc21 : 3.19

1: FC(F)n1c2ccccc2c2cc(CCOc3ncccc3-c3cncnc3)cnc21
2: Cn1c2ccccc2c2cc(C3(COc4ncccc4-c4cncnc4)CC3)cnc21
I would appreciate it if you could say which entry, 1 or 2 , has the lower remaining at 1 h, 1 µM value. Reply briefly: the label of your chosen item.
2

The origin of these recorded values is ChEMBL document CHEMBL3259542.
